measured_on: Hu-Asp2 (Homo sapiens, UniProt P56817)
Construct: made in house; host or cells: High Five insect cells
Sequence (P56817 46-501): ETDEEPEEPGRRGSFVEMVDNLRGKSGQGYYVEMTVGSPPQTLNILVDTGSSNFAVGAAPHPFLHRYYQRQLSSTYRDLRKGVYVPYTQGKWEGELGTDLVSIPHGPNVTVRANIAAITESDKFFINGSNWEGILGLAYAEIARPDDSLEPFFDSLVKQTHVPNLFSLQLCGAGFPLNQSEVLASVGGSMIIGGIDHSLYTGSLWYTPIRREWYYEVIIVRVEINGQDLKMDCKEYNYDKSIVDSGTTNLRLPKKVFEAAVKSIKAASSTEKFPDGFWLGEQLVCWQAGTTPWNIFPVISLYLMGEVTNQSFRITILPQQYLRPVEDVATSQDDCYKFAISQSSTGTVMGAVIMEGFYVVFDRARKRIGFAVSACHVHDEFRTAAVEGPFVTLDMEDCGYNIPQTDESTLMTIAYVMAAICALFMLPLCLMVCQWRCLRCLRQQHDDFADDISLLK
run_description: Hu-Asp2 peptide substrate cleavage assay (HPLC quantitation of cleavage products)
Format: biochemical
settings: Table 5; 2 nM enzyme, 50 μM substrate, 25 mM Sodium acetate, pH 4.4, 37° C., 2 hr
metric_name: Cleavage Activity (µmol/min/mg)

Solved cases below.
SEVDY-EVEFR (SEVDYEVEFR) | 0.38
SEVSY-↓-EVEFR (SEVSYEVEFR) | 0.16
SEIDY-EVEFR (SEIDYEVEFR) | 0.69
SEISY-EVEFR (SEISYEVEFR) | 0.80
TEVDY-EVEFR (TEVDYEVEFR) | 0.37

A: TRPGSGLTNIKTEEISEVSY-EVEFR (TRPGSGLTNIKTEEISEVSYEVEFR)
B: TEIDY-EVEFR (TEIDYEVEFR)
Smaller Cleavage Activity value? Options are A and B // caller expects the label of the chosen entry
B

a: TEVSY-EVEFR (TEVSYEVEFR)
b: KTEEISEVSY-EVEFR (KTEEISEVSYEVEFR)
// task: argmin of Cleavage Activity over [ a , b ] # answer = label of selected item
a
(a: 0.27 µmol/min/mg, b: 0.58 µmol/min/mg)
